- Tested on: Hs578T multi-cell spheroids, viability
- Test Details: Anticancer human tumor Hs578T cell line growth inhibition [IpAb];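 note: drug exposure lasted 7 days before readout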
- Condition Set: second compound 1 µM; first compound 0.00316 µM; stronger effect = lower value
Value Kind: viability, T/C (%)
Please reply with the bare figure in % and do not write the unit itself.

Cn1ncnc1[C@H]1c2n[nH]c(=O)c3cc(F)cc(c23)N[C@@H]1c1ccc(F)cc1 + CC(C)NCC(C(=O)N1CCN(c2ncnc3c2C(C)CC3O)CC1)c1ccc(Cl)cc1	62.6

Need viability, T/C of COc1c(OCCCN2CCOCC2)ccc2c3n(c(=NC(=O)c4cnc(N)nc4)nc12)CCN3 + CCN1CCN(Cc2ccc(Nc3ncc(F)c(-c4cc(F)c5nc(C)n(C(C)C)c5c4)n3)nc2)CC1 , thanks.
91.5

Fill in: viability, T/C of COc1c(OCCCN2CCOCC2)ccc2c3n(c(=NC(=O)c4cnc(N)nc4)nc12)CCN3 + CC(C)NCC(C(=O)N1CCN(c2ncnc3c2C(C)CC3O)CC1)c1ccc(Cl)cc1 is ___
57.7

Entry source: PubChem BioAssay AID2060331
